# assayed_system: HDAC6 (Homo sapiens)
# Construct: purchased Reaction Biology Corporation (assay run by the CRO)
# Sequence (Q9UBN7 whole entry): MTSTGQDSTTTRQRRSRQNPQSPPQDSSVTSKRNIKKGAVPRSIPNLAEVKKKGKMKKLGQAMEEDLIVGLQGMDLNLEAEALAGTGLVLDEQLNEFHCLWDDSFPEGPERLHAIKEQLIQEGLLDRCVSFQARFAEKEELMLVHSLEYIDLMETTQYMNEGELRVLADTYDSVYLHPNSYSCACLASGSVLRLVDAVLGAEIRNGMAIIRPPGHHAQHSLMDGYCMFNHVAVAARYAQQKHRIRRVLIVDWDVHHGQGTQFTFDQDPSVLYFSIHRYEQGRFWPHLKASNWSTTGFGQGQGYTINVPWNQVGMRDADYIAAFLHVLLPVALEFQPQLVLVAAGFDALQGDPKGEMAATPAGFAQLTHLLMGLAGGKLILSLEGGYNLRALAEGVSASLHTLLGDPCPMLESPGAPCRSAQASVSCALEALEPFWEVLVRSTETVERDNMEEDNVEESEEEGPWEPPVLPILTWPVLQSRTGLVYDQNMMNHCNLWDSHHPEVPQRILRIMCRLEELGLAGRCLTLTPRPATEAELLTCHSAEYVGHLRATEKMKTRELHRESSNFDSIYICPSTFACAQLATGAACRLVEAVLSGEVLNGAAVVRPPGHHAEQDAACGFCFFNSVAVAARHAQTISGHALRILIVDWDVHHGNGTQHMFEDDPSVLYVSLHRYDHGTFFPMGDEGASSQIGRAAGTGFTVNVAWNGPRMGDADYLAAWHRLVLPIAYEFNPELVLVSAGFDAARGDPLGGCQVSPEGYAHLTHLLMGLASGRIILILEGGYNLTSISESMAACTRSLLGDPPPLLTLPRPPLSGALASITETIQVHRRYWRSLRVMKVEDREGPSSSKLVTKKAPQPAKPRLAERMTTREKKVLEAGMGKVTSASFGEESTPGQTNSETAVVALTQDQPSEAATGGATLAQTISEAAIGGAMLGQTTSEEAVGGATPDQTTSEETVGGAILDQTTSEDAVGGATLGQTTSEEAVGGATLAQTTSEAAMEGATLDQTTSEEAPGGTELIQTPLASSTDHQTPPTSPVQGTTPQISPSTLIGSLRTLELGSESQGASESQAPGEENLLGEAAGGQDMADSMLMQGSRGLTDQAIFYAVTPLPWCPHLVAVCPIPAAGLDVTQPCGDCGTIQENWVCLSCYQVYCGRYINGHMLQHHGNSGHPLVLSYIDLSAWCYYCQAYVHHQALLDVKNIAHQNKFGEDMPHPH
# assay_details: HDAC6 inhibition, full IC50 measurement (Reaction Biology; fluorogenic p53 peptide RHKK(Ac)AMC)
# Assay type: biochemical
# measurement_setup: Conc. 3.33E-06 M, t1
# Protocol: The assay was performed using 50 μM fluorogenic peptide from p53 residues 379-382 [RHKK(Ac)AMC] in a base reaction buffer of 50 mM Tris-HCl at pH 8.0, 137 mM NaCl, 2.7 mM KCl, 1 mM MgCl2, and freshly added 1 mg/ml BSA and 1% DMSO. […] Peptide concentrations were calculated based on mass of lyophilized peptide and its molecular weight. […]
Peptide text beside a SMILES is read from it.
measured_attribute: HDAC6 activity raw data (signal)

1. NCCCC[C@H]1NC(=O)[C@H](CCC(N)=O)NC(=O)[C@H](CCC(=O)O)NC(=O)[C@@H]2CCCN2C(=O)[C@H](CC(N)=O)NC(=O)[C@H](CCCCCS)NC(=O)CNC(=O)[C@H](Cc2c[nH]c3ccccc23)NC1=O [des1.1.1, SHA-Asn-Pro-Glu-Gln-dLys-Trp-Gly] (HELM PEPTIDE1{E.Q.[dK].W.G.[O=C([C@H](CCCCCS)N[*:1])[*:2]].N.P}$PEPTIDE1,PEPTIDE1,1:R1-8:R2$$$V2.0) ... 30608
2. N=C(N)NCCC[C@@H]1NC(=O)[C@@H](CCCNC(=N)N)NC(=O)[C@H]2CCCN2C(=O)[C@@H](Cc2c[nH]cn2)NC(=O)[C@H](Cc2ccc(O)cc2)NC(=O)[C@H](CCCCCS)NC(=O)[C@H](CCc2ccccc2)NC(=O)[C@@H](CO)NC(=O)[C@H](CC(=O)O)NC1=O [des3.3.1, SHA-Tyr-dHis-dPro-dArg-Arg-Asp-dSer-C27] (HELM PEPTIDE1{[O=C([C@H](CCCCCS)N[*:1])[*:2]].Y.[dH].[dP].[dR].R.D.[dS].[O=C([C@H](CCc1ccccc1)N[*:1])[*:2]]}$PEPTIDE1,PEPTIDE1,1:R1-9:R2$$$V2.0) ... 4544
3. CCCC[C@H]1NC(=O)[C@H](Cc2ccccc2)NC(=O)[C@H](CCCCCS)NC(=O)[C@@H](CO)NC(=O)[C@H](CC(=O)O)NC(=O)[C@@H](CO)NC(=O)[C@@H](C)NC(=O)[C@H](CCCCN)NC1=O [des4.3.1.1, SHA-Phe-dNle-Lys-dAla-dSer-Asp-dSer] (HELM PEPTIDE1{D.[dS].[O=C([C@H](CCCCCS)N[*:1])[*:2]].F.[CCCC[C@@H](N[*:1])C(=O)[*:2]].K.[dA].[dS]}$PEPTIDE1,PEPTIDE1,1:R1-8:R2$$$V2.0) ... 268413
4. CSCC[C@H]1NC(=O)[C@@H](CO)NC(=O)[C@H](CC(N)=O)NC(=O)[C@H](CC(=O)O)NC(=O)[C@@H]([C@H](C)O)NC(=O)[C@H](Cc2c[nH]c3ccccc23)NC(=O)[C@H](CCCCCS)NC(=O)[C@H](CCCCN)NC(=O)[C@@H](CC(=O)O)NC1=O [des2.1.1, SHA-Trp-dThr-Asp-Asn-dSer-dMet-dAsp-Lys] (HELM PEPTIDE1{D.N.[dS].[dM].[dD].K.[O=C([C@H](CCCCCS)N[*:1])[*:2]].W.[dT]}$PEPTIDE1,PEPTIDE1,1:R1-9:R2$$$V2.0) ... 6654
5. CC(C)[C@@H]1NC(=O)[C@H](CCCNC(=N)N)NC(=O)[C@@H](CC(=O)O)NC(=O)[C@H](CO)NC(=O)[C@@H](CO)NC(=O)[C@@H](CCC(=O)O)NC(=O)[C@H](Cc2ccc(O)cc2)NC(=O)[C@H](CCCCCS)NC1=O [des4.2.0, SHA-Tyr-dGlu-dSer-Ser-dAsp-Arg-Val] (HELM PEPTIDE1{R.V.[O=C([C@H](CCCCCS)N[*:1])[*:2]].Y.[dE].[dS].S.[dD]}$PEPTIDE1,PEPTIDE1,1:R1-8:R2$$$V2.0) ... 43007
6. N=C(N)NCCC[C@H]1NC(=O)[C@@H]2CCCN2C(=O)[C@H](CO)NC(=O)[C@@H](Cc2c[nH]cn2)NC(=O)[C@H](CCCCCS)NC(=O)[C@H](CCCCN)NC(=O)[C@H](Cc2ccc(O)cc2)NC(=O)[C@H]2CCCN2C(=O)[C@@H](CCC(N)=O)NC1=O [des3.1.0, SHA-dHis-Ser-Pro-dArg-dGln-dPro-Tyr-Lys] (HELM PEPTIDE1{K.[O=C([C@H](CCCCCS)N[*:1])[*:2]].[dH].S.P.[dR].[dQ].[dP].Y}$PEPTIDE1,PEPTIDE1,1:R1-9:R2$$$V2.0) ... 37434
